The reported numbers originate from ChEMBL document CHEMBL2424578.

System: Staphylococcus aureus
run_description: Antibacterial activity against SCCmec type 3 genotype-positive and methicillin-resistant Staphylococcus aureus clinical isolates after 24 hrs by broth microdilution method
Format: functional
Each item that follows carries a reported MIC.
# number only, unit µg/mL dropped from output

Field: example entries. Status: answers known.
# compound, MIC / µg/mL
measured = [
    ("CC[C@H]1OC(=O)[C@H](C)[C@@H](O[C@H]2C[C@@](C)(OC)[C@@H](O)[C@H](C)O2)[C@H](C)[C@@H](O[C@@H]2O[C@H](C)C[C@H](N(C)C)[C@H]2O)[C@](C)(O)C[C@@H](C)CN(C)[C@H](C)[C@@H](O)[C@]1(C)O [AZITHROMYCIN]", 2000),
    ("COS(=O)(=O)[O-].COc1ccc2c(c1OC)C[N+]1(C)CCc3cc4c(cc3C1=C2)OCO4 (centres undefined)", 64),
]

Ask: Identify the measured MIC of C[C@H]1COc2c(N3CCN(C)CC3)c(F)cc3c(=O)c(C(=O)O)cn1c23.C[C@H]1COc2c(N3CCN(C)CC3)c(F)cc3c(=O)c(C(=O)O)cn1c23.O [LEVOFLOXACIN] for Staphylococcus aureus.
Result: 2

Ask: Identify the measured MIC of COc1ccc2cc3[n+](cc2c1OC)CCc1cc2c(cc1-3)OCO2.[Cl-] [BERBERINE CHLORIDE] for Staphylococcus aureus.
Result: 32
